Test system: hsa-mir-6850 loop
Assay: normalised indicator fluorescence (fraction of RNA + indicator signal without compound); higher = less displacement of indicator (weaker competition)
Conditions: compound concentration: 5 uM; 30 min; indicator: TO-PRO-3 0.5 uM; RNA concentration: 0.5 uM
value_kind: normalised indicator fluorescence

> print(dat)
                                    molecule  result
 1  C[S+]([O-])c1ccc(-c2nc(-c3ccc(F)cc3)c(-c3ccncc3)[nH]2)cc1 (stereo not drawn)    1.04
 2  O=C(Nc1ccc2[nH]nc(-c3ccncc3)c2c1)[C@@H]1CCN(CC(=O)N2CCN(c3ccc(-c4ncccn4)cc3)CC2)C1    0.89
 3                   CC1=NN(c2ccccc2)C(=O)C1    1.05
 4  Nc1ncnc2c1ncn2[C@@H]1O[C@H](CO)[C@@H](O)[C@@H]1O    1.06
 5     NC(=O)c1ccccc1Nc1ccnc(Nc2cccc(O)c2)n1    1.04
 6  CC1(C)C=Cc2c(ccc3c2OC[C@@H](c2ccc(O)cc2O)C3)O1    1.01
 7  CC(=O)Oc1c(C)c(C)c2c(c1C)CCC(C)(CCC[C@H](C)CCC[C@H](C)CCCC(C)C)O2 (stereo partly drawn) [Vitamin E Acetate]    1.02
 8      O=c1cc(-c2ccc(O)cc2)oc2cc(O)cc(O)c12    1.06
 9         NC(=O)N/N=C/c1ccc([N+](=O)[O-])o1    1.04
10  CN1CCN(c2nc(C3=C(c4c[nH]c5ccccc45)C(=O)NC3=O)c3ccccc3n2)CC1   0.996
11  Oc1cc(O)c2c(c1)O[C@H](c1ccc(O)c(O)c1)[C@@H](O)C2 [Cianidanol]    1.07
12  C[C@@H]1O[C@@H](Oc2c(-c3cc(O)c(O)c(O)c3)oc3cc(O)cc(O)c3c2=O)[C@H](O)[C@H](O)[C@H]1O    1.08
13  CCNC(=O)c1[nH]nc(-c2cc(Cl)c(O)cc2O)c1-c1ccc(OC)cc1    1.05
14  O=c1c(O)c(-c2cc(O)c(O)c(O)c2)oc2cc(O)cc(O)c12   0.969
15  C/C1=C/CC[C@H](C)C(=O)C[C@@H](C(C)C)C(=O)C1    1.06
16  COc1ccc([C@@H]2OC[C@H]3[C@@H]2CO[C@@H]3c2ccc(O[C@@H]3O[C@H](CO)[C@@H](O)[C@H](O)[C@H]3O)c(OC)c2)cc1OC    1.07
17    Nc1c(Br)cc(Br)cc1CN[C@H]1CC[C@H](O)CC1    1.06
18  O=C(O)C(O)Cc1ccc(O)c(O)c1 (stereo not drawn) [Sodium Danshensu]    1.08

---

We begin with a simple list: items and their reported normalised indicator fluorescence.
System: hsa-mir-221 loop
Experiment: normalised indicator fluorescence (fraction of RNA + indicator signal without compound); higher = less displacement of indicator (weaker competition)
Settings: compound concentration: 5 uM; 30 min; indicator: TO-PRO-1 0.1 uM; RNA concentration: 0.1 uM
Counter-ions that a name gives are not always drawn.
value_kind: normalised indicator fluorescence

compound	result
O=C(/C=C/C=C/c1ccc2c(c1)OCO2)N1CCCCC1	0.997
CC(C)(O)[C@@H]1CC[C@](C)([C@H]2[C@@H](O)C[C@@]3(C)[C@@H]4C[C@H](O)[C@H]5C(C)(C)[C@@H](O[C@@H]6OC[C@@H](O)[C@H](O)[C@H]6O[C@@H]6O[C@H](CO)[C@@H](O)[C@H](O)[C@H]6O)CC[C@@]56C[C@@]46CC[C@]23C)O1 [Astragaloside III]	1.06
CC(C)c1cc(-c2n[nH]c(=O)n2-c2ccc3c(ccn3C)c2)c(O)cc1O	1.03
CC(=O)O[C@H]1C[C@@]2(C)[C@@H](C[C@@H](O)[C@H]3[C@@]4(C)CC[C@@H](O)[C@@H](C)[C@@H]4CC[C@@]32C)/C1=C(\CCC=C(C)C)C(=O)O [Sodium fusidate]	1.01
Cc1cc(NC(=O)c2cccc(NC(=O)/C=C/CN(C)C)c2)ccc1Nc1nccc(-c2cccnc2)n1	1.04
Cc1c(C)c2c(c(C)c1O)CC[C@@](C)(CCC[C@H](C)CCC[C@H](C)CCCC(C)C)O2	1.02
O=C(O)/C=C/c1ccc(Cn2ccnc2)cc1 [Ozagrel hydrochloride]	1
O=C(NC(Cc1cc(=O)[nH]c2ccccc12)C(=O)O)c1ccc(Cl)cc1 (stereo not drawn) [Rebamipide]	1.08
CC1(C)C=Cc2c(ccc3c2OC[C@@H](c2ccc(O)cc2O)C3)O1	1.04
NC(=O)c1ccc(N(C(N)=O)c2c(F)cccc2F)nc1-c1ccc(F)cc1F	1.06
COc1ccc(-c2coc3cc(O)ccc3c2=O)cc1O	1.03
Cc1c(F)cc(C(=O)NC2CC2)cc1-c1ccc(C(=O)NCC(C)(C)C)cn1	1.07
N#Cc1c(NC(=O)c2cccc3ccccc23)sc2c1CCCC2	0.919
CC1(C)CC(=O)c2c(C(F)(F)F)nn(-c3ccc(C(N)=O)c(N[C@H]4CC[C@H](O)CC4)c3)c2C1	0.978
Cn1cc(-c2ccc3c(c2)CCN3C(=O)Cc2cccc(C(F)(F)F)c2)c2c(N)ncnc21	1.08
NNC(=O)c1ccncc1	0.976
CN(C)C[C@@H]1CCn2cc(c3ccccc32)C2=C(C(=O)NC2=O)c2cn(c3ccccc23)CCO1 [Ruboxistaurin hydrochloride]	1
CN(C)CCCN1c2ccccc2CCc2ccc(Cl)cc21 [Clomipramine hydrochloride]	1.07
Oc1ccc(-c2nc(-c3ccc(F)cc3)c(-c3ccncc3)[nH]2)cc1	1.08
O=C(Nc1nc2ccc(NC(=O)C34CC5CC(CC(C5)C3)C4)cc2s1)c1ccccc1	1.14
CN1CCN(c2ccc(C(=O)Nc3n[nH]c4ccc(Cc5cc(F)cc(F)c5)cc34)c(NC3CCOCC3)c2)CC1	1.04
O=C(O)CCc1ccc(O)cc1O [Hydroumbellic acid]	0.989
Cc1cccc(CC(=O)N2CCc3c2ccc(-c2cn(C)c4ncnc(N)c24)c3F)n1	1.08
O=C1C[C@@H](c2ccc(O)cc2)Oc2cc(O)cc(O)c21	1.07
OC[C@H]1O[C@@H](Oc2ccc(O)cc2)[C@H](O)[C@@H](O)[C@@H]1O	1.08
COc1ccc([C@@H]2OC[C@H]3[C@@H]2CO[C@@H]3c2ccc(O[C@@H]3O[C@H](CO)[C@@H](O)[C@H](O)[C@H]3O)c(OC)c2)cc1OC	0.939
CC(C)OC(=O)CCC/C=C\C[C@@H]1[C@@H](CC[C@@H](O)CCc2ccccc2)[C@H](O)C[C@@H]1O	1.01
COc1ccc(C2CC(=O)c3c(O)cc(OC4OC(COC5OC(C)C(O)C(O)C5O)C(O)C(O)C4O)cc3O2)cc1OC (stereo not drawn)	1.05
COc1ccc(C(=C2C(=O)Nc3ccccc32)c2ccc(OC)cc2)cc1	1.1
CC(C)N(CCCCOCC(=O)NS(C)(=O)=O)c1cnc(-c2ccccc2)c(-c2ccccc2)n1	1.05
O=C(COc1ccc(Cl)cc1)NC1CCC(NC(=O)COc2ccc(Cl)cc2)CC1 (stereo not drawn)	1.05
CCNC(=O)c1noc(-c2cc(Cl)c(O)cc2O)c1-c1ccc(OC)cc1	1.06
CC(=O)CCCCn1c(=O)c2c(ncn2C)n(C)c1=O	1.01
